System: Human monocyte cell line THP-1
experiment_summary: Detection of THP-1 cell pyroptosis (Caspase-Glo 1 Inflammasome Assay)
Type: cell-based
conditions_used: Homo sapiens, THP-1, THP-1 pyroptosis, 20 nM PMA 48 h, 1 μg/mL LPS, compound 3 h
pIC50: −log10 of the molar value.
Listed here are molecules together with their documented pIC50.

molecule	pIC50
[2H]c1cc([C@@H](C)C2CC2)c(NC(=O)NS(=O)(=O)c2cc(C(C)(C)O)co2)c2c1CCC2	5.30 to 6.00
C=C(c1c(C)cc2c(c1NC(=O)NS(=O)(=O)c1cc(C(C)(C)O)co1)CCC2)C1CC1	5.30 to 6.00
CC(c1ccc2c(c1NC(=O)NS(=N)(=O)c1cc(C(C)(C)O)co1)CCC2)C1CCC1 (stereo not shown)	≥ 7.00
C[C@@H](c1ccc2c(c1NC(=O)NS(=O)(=O)c1sc(C(C)(C)O)cc1F)CCC2)C1CC1	6.30 to 7.00
C[C@H](c1ccc2c(c1NC(=O)NS(=N)(=O)c1ccc(C3(O)COC3)s1)CCC2)C1CC1 (stereo partly shown) [Compound 65C]	6.30 to 7.00
CC(C)(O)c1coc(S(=O)(=O)NC(=O)Nc2c(C(C3CC3)C3CC3)ccc3c2CCC3)c1	6.00 to 6.30
C[C@@H](c1ccc2c(c1NC(=O)NS(=O)(=O)c1cc(C(C)(C)O)co1)CCC2)C1CCCC1	5.30 to 6.00

---

experiment_summary: Pharmacokinetic analysis of compounds in rats
Type: in vivo, SD rats
conditions_used: SD rats, po (intragastric), 10 mg/kg, plasma
property: t1/2

compound	result
C[C@@H](c1ccc2c(c1NC(=O)NS(=N)(=O)c1cc(C(C)(C)O)co1)CC2)C1CC1 (mixture of isomers) [Compound 38-1]	3.1 h
CC(c1ccc2c(c1NC(=O)NS(=N)(=O)c1cc(C(C)(C)O)co1)CCC2)C1CC1 (racemic) [Compound 8-2]	3.4 h
C[C@@H](c1ccc2c(c1NC(=O)NS(=N)(=O)c1cc(C(C)(C)O)co1)CCC2)C1CC1 (mixture of isomers) [Compound 6-2]	2.8 h
CC(c1ccc2c(c1NC(=O)NS(=N)(=O)c1cc(C(C)(C)O)co1)CC2)C1CC1 (racemic) [Compound 36-1]	2.9 h
CC(c1ccc2c(c1NC(=O)NS(=N)(=O)c1cc(C(C)(C)O)co1)CCC2)C1CC1 (racemic) [Compound 8-1]	2.4 h
C[C@@H](c1ccc2c(c1NC(=O)NS(=N)(=O)c1cc(C(C)(C)O)co1)CCC2)C1CC1 (mixture of isomers) [Compound 6-1]	2.5 h

---

experiment_summary: Pharmacokinetic analysis of compounds in rats
Assay type: in vivo, SD rats
conditions_used: SD rats, iv (tail vein), 1 mg/kg, plasma

molecule	unit_tag	Vss
C[C@@H](c1ccc2c(c1NC(=O)NS(=N)(=O)c1cc(C(C)(C)O)co1)CCC2)C1CC1 (mixture of isomers) [Compound 6-2]	L/kg	0.781
CC(c1ccc2c(c1NC(=O)NS(=N)(=O)c1cc(C(C)(C)O)co1)CCC2)C1CC1 (racemic) [Compound 8-2]	L/kg	0.656
C[C@@H](c1ccc2c(c1NC(=O)NS(=N)(=O)c1cc(C(C)(C)O)co1)CCC2)C1CC1 (mixture of isomers) [Compound 6-1]	L/kg	0.26
CC(c1ccc2c(c1NC(=O)NS(=N)(=O)c1cc(C(C)(C)O)co1)CC2)C1CC1 (racemic) [Compound 36-1]	L/kg	0.22
CC(c1ccc2c(c1NC(=O)NS(=N)(=O)c1cc(C(C)(C)O)co1)CCC2)C1CC1 (racemic) [Compound 8-1]	L/kg	0.296
C[C@@H](c1ccc2c(c1NC(=O)NS(=N)(=O)c1cc(C(C)(C)O)co1)CC2)C1CC1 (mixture of isomers) [Compound 38-1]	L/kg	0.679

---

experiment_summary: Pharmacokinetic analysis of compounds in rats
Assay type: in vivo, SD rats
conditions_used: SD, rat, in vivo, iv, 1 mg/kg

compound	AUC (ng·h/mL)
C[C@@H](c1cc(F)c2c(c1NC(=O)N[S@@](=N)(=O)c1cc(C(C)(C)O)co1)CCC2)C1CC1 (single isomer, unassigned) [Compound 42-2]	1980
CC(C)(O)c1coc(S(=O)(=O)NC(=O)Nc2c3c(cc4c2CCC4)CCC3)c1 [Control 3, reference compound]	1400
C[C@H](c1cc(F)c2c(c1NC(=O)N[S@@](=N)(=O)c1cc(C(C)(C)O)co1)CCC2)C1CC1 (single isomer, unassigned) [Compound 44-2]	1620

---

System: Human monocyte cell line THP-1
experiment_summary: Detection of THP-1 cell pyroptosis (Caspase-Glo 1 Inflammasome Assay)
Type: cell-based
conditions_used: Homo sapiens, THP-1, THP-1 pyroptosis, 20 nM PMA 48 h, 1 μg/mL LPS, compound 3 h
pIC50: −log10 of the molar value.

compound	pIC50
C[C@@H](c1ccc2c(c1NC(=O)N[S@@](=N)(=O)c1cc(C(C)(C)O)cs1)CCC2)C1CC1	6.30 to 7.00
C[C@@H](c1ccc2c(c1NC(=O)NS(=O)(=O)c1cc(C(C)(C)O)co1)CCC2)C1CCC1	6.30 to 7.00
CC(C)(O)c1coc(S(=O)(=O)NC(=O)Nc2c(CC3CCC3)ccc3c2CCC3)c1	6.30 to 7.00
Cc1cc2c(c(NC(=O)NS(=O)(=O)c3cc(C(C)(C)O)co3)c1[C@H](C)C1CC1)CCC2	6.30 to 7.00
C[C@@H](c1cc(F)c2c(c1NC(=O)N[S@@](=N)(=O)c1cc(C(C)(C)O)co1)CCC2)C1CC1 (mixture of isomers) [Compound 42-1]	6.30 to 7.00
C[C@@H](c1ccc2c(c1NC(=O)NS(=O)(=O)c1ccc(C3(O)CCOCC3)s1)CCC2)C1CC1	6.30 to 7.00
C[C@@H](c1ccc2c(c1NC(=O)NS(=O)(=O)c1ccc(C(C)(C)O)s1)CCC2)C1CC1	5.30 to 6.00
C[C@H](c1ccc2c(c1NC(=O)NS(=O)(=O)c1ccc(C(C)(C)O)s1)CCC2)C1CC1	5.30 to 6.00
C[C@H](c1ccc2c(c1NC(=O)NS(=O)(=O)c1cnc(C(C)(C)O)s1)CCC2)C1CC1	6.30 to 7.00
CC(C)(O)c1coc(S(=O)(=O)NC(=O)Nc2c(CC3CCC3)ccc3c2CC3)c1	6.30 to 7.00
C[C@H](c1cc(F)c2c(c1NC(=O)NS(=O)(=O)c1cc(C(C)(C)O)co1)CCC2)C1CC1	6.00 to 6.30
C[C@@H](c1cc(C#N)c2c(c1NC(=O)NS(=O)(=O)c1cc(C(C)(C)O)co1)CCC2)C1CC1	6.30 to 7.00
C[C@H](c1ccc2c(c1NC(=O)N[S@@](=N)(=O)c1cc(C(C)(C)O)cs1)CCC2)C1CC1	5.30 to 6.00
COc1cc(-c2cc(F)cc(C(C)C3CC3)c2NC(=O)NS(=O)(=O)c2cc(C(C)(C)O)co2)ccn1 (centres unmarked)	6.30 to 7.00
CC(C)(O)c1coc(S(=O)(=O)NC(=O)Nc2c(CC3CC3)ccc3c2CCC3)c1	6.30 to 7.00
C[C@H](c1ccc2c(c1NC(=O)NS(=O)(=O)c1cc(C3(O)CC3)co1)CCC2)C1CC1	6.30 to 7.00
Cc1oc(S(=O)(=O)NC(=O)Nc2c([C@@H](C)C3CC3)ccc3c2CCC3)cc1C(C)(C)O	6.30 to 7.00
